The measured values listed here are drawn from ChEMBL document CHEMBL1130506.

system.tested: UniProtKB P04626
Sequence (P04626 whole entry): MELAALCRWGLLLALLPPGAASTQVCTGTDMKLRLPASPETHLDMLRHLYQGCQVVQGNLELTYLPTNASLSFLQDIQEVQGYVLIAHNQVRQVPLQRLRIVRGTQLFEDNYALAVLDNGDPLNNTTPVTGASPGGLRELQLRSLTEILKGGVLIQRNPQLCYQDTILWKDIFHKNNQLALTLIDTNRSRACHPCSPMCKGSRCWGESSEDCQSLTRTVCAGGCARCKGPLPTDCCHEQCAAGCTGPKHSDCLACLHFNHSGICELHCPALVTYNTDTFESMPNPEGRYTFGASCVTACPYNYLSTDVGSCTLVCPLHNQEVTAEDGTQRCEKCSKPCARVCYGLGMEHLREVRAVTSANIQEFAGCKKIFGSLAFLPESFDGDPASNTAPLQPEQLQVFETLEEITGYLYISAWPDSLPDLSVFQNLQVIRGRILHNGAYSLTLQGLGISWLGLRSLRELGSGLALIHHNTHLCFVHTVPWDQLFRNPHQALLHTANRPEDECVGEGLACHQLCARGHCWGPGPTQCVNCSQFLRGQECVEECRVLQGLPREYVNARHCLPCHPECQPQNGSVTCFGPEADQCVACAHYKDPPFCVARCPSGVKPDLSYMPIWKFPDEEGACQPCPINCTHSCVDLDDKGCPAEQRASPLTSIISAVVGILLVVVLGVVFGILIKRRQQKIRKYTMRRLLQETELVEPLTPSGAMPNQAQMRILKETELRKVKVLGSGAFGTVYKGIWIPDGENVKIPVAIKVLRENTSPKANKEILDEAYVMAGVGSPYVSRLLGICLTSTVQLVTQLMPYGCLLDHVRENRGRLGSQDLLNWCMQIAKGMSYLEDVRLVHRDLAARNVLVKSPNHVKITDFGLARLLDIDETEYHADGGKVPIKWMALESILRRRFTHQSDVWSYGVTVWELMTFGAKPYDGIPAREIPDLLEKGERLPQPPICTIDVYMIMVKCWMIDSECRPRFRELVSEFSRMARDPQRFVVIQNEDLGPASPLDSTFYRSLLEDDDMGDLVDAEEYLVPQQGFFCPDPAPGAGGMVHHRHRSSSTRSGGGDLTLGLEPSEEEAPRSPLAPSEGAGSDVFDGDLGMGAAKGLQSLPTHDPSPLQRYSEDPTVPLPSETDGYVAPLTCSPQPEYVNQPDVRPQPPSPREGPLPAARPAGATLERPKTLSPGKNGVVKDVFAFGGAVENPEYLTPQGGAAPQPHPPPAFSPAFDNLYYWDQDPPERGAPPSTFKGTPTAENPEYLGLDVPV
assay.comment: Inhibition of autophosphorylation of HER-2 expressed in NIH3T3 cell lines
property.name: pIC50
FYI, pIC50 means -log10 of a concentration in mol per litre.

[in] Recall the reported pIC50 of O=C(CCCC(=O)Oc1ccc(/C=C/[N+](=O)[O-])cc1)Oc1ccccc1 when tested on UniProtKB P04626.
[out] 5.36

[in] Recall the reported pIC50 of CC(C)O[C@@H]1[C@H](OC(C)C)[C@@H](COC(=O)CCCC(=O)Oc2ccc(/C=C/[N+](=O)[O-])cc2)O[C@H]1n1cnc2c(N)ncnc21 when tested on UniProtKB P04626.
[out] 5.35

[in] Recall the reported pIC50 of O=C(CCCC(=O)Oc1ccc(/C=C/[N+](=O)[O-])cc1)OCc1ccco1 when tested on UniProtKB P04626.
[out] 5.42

[in] Recall the reported pIC50 of COc1ccc(OC(=O)CCCC(=O)Oc2ccc(/C=C/[N+](=O)[O-])cc2)cc1 when tested on UniProtKB P04626.
[out] 5.18
